Molecular target: HLA B*1501 (Homo sapiens, UniProt P01889, A329T/A93T/A95T/C349S/D201E/D98Y/E187L/E204Q/E69M/E70A/K202T/N87E/Q94N/R155S/R180W/S121R/S35A/S48A/V306I/V36M/Y140S/Y91S)
Experiment: biochemical
Assay type: binding
Response field label: string, one of yes (Normalized average relative binding affinity (ARB), HLA B*1501 strictly below 0.2) or no.

Answered examples (5):
XXMXXXXXX [3064.0051]	no
XXWXXXXXX [3064.0059]	yes
XDXXXXXXX [3064.0023]	yes
VXXXXXXXX [3064.0018]	yes
XXGXXXXXX [3064.0046]	yes

Q: For NXXXXXXXX [3064.0012] , is the recorded Normalized average relative binding affinity (ARB), HLA B*1501 below the cut-off of 0.2?
A: no

Q: Check XPXXXXXXX [3064.0033] too.
A: yes

Q: Check XRXXXXXXX [3064.0035] too.
A: yes

Q: Check XXEXXXXXX [3064.0044] too.
A: yes

Q: Check XXXDXXXXX [3064.0063] too.
A: no

Q: Check XXTXXXXXX [3064.0057] too.
A: yes

Q: Check XXAXXXXXX [3064.0041] too.
A: no

Q: Check XXXAXXXXX [3064.0061] too.
A: no

Q: Check XIXXXXXXX [3064.0028] too.
A: no

Q: Check XXDXXXXXX [3064.0043] too.
A: yes

Q: Check CXXXXXXXX [3064.0002] too.
A: yes
